system: normal NK cells expanded with K562-aAPC; experiment: drug sensitivity score (DSS) (DSS units); higher = more sensitive; extreme values may be limits of the assay; conditions: 72 h; IL-2 2.5 ng/mL
# binarize drug sensitivity score: threshold 1 inclusive, high side 1.0, low side 0.0

C=CCn1c(=O)c2cnc(Nc3ccc(N4CCN(C)CC4)cc3)nc2n1-c1cccc(C(C)(C)O)n1 [MK1775] (max concentration tested 10000 nM)
1.0
CC(C)N(C[C@H]1O[C@@H](n2cnc3c(N)ncnc32)[C@H](O)[C@@H]1O)[C@H]1C[C@@H](CCc2nc3cc(C(C)(C)C)ccc3[nH]2)C1 [Pinometostat] (max concentration tested 1000 nM)
0.0
N[C@@H](Cc1ccc(N(CCCl)CCCl)cc1)C(=O)O [Melphalan] (max concentration tested 12500 nM)
0.0
CC(C)NC[C@@H](C(=O)N1CCN(c2ncnc3c2[C@H](C)C[C@H]3O)CC1)c1ccc(Cl)cc1 [Ipatasertib] (max concentration tested 10000 nM)
1.0
O=c1sn(-c2cccc3ccccc23)c(=O)n1Cc1ccccc1 [Tideglusib] (max concentration tested 3000 nM)
0.0
CNC(=O)c1ccccc1Sc1ccc2c(/C=C/c3ccccn3)n[nH]c2c1 [Axitinib] (max concentration tested 10000 nM)
1.0
CC(C)(C)NC(=O)[C@H]1CC[C@H]2[C@@H]3CC[C@H]4NC(=O)C=C[C@]4(C)[C@H]3CC[C@]12C [Finasteride] (max concentration tested 10000 nM)
0.0
c1ccc(Cn2c(-c3ccc(OC[C@H](C4CCNCC4)n4c(-c5ccccc5)nc5ccccc54)cc3)nc3ccccc32)cc1 [deltarasin] (max concentration tested 10000 nM)
1.0
Cn1ncnc1[C@H]1c2n[nH]c(=O)c3cc(F)cc(c23)N[C@@H]1c1ccc(F)cc1 [Talazoparib] (max concentration tested 1000 nM)
1.0
Cc1c(CN2CCN(C(=O)[C@H](C)O)CC2)sc2c(N3CCOCC3)nc(-c3cnc(N)nc3)nc12 [Apitolisib] (max concentration tested 10000 nM)
1.0
O=C(O)CC[C@H]1CC[C@@](c2cc(F)ccc2F)(S(=O)(=O)c2ccc(Cl)cc2)CC1 [MK-0752] (max concentration tested 1000 nM)
1.0
COc1cccc2c1C(=O)c1c(O)c3c(c(O)c1C2=O)C[C@@](O)(/C(CO)=N/NC(=O)CCCCCN1C(=O)C=CC1=O)C[C@@H]3O[C@H]1C[C@H](N)[C@H](O)[C@H](C)O1 [Aldoxorubicin] (max concentration tested 1000 nM)
1.0
Cc1csc(-c2nnc(Nc3ccc(Oc4ncccc4-c4ccnc(N)n4)cc3)c3ccccc23)c1 [AMG-900] (max concentration tested 1000 nM)
1.0
COC[C@H](NC(=O)c1cnc(C)s1)C(=O)N[C@@H](COC)C(=O)N[C@@H](Cc1ccccc1)C(=O)[C@@]1(C)CO1 [Oprozomib] (max concentration tested 2500 nM)
1.0
Oc1nc(-c2ccc(C(F)(F)F)cc2)nc2c1CSCC2 [XAV-939] (max concentration tested 10000 nM)
1.0
C[C@]12CC[C@@H]3c4ccc(O)cc4C[C@@H](CCCCCCCCC[S+]([O-])CCCC(F)(F)C(F)(F)F)[C@H]3[C@@H]1CC[C@@H]2O (some centres not stated) [Fulvestrant] (max concentration tested 1000 nM)
0.0
Cc1cc(Nc2nc(N[C@@H](C)c3ncc(F)cn3)ncc2Cl)[nH]n1 [AZD1480] (max concentration tested 1000 nM)
1.0
C[C@@H]1CN(CC(=O)Nc2ccc3c(c2)Cc2cccc(-c4cc(=O)cc(N5CCOCC5)o4)c2S3)C[C@H](C)O1 (max concentration tested 25000 nM)
1.0
CO[C@@H](C(=O)N1Cc2[nH]nc(NC(=O)c3ccc(N4CCN(C)CC4)cc3)c2C1)c1ccccc1 [Danusertib] (max concentration tested 10000 nM)
1.0
C[C@@H](C(=O)O)c1ccc(-c2ccccc2)c(F)c1 [Tarenflurbil] (max concentration tested 10000 nM)
0.0
COc1cc(CCc2cc(NC(=O)c3ccc(N4CC(C)NC(C)C4)cc3)n[nH]2)cc(OC)c1 (configuration not stated) [AZD4547] (max concentration tested 1000 nM)
0.0
CCC1(c2ccc(N)cc2)CCC(=O)NC1=O (configuration not stated) [Aminoglutethimide] (max concentration tested 10000 nM)
0.0
